Listed binders paired with reported EC50
Molecular target: T1, Human B7-H4-Fc (Human B7H4 ECD, Fc_6His) (human)
T1 construct: also called FcHis6 tagged human B7-H4
T1 sequence (Q7Z7D3 whole entry, looked up): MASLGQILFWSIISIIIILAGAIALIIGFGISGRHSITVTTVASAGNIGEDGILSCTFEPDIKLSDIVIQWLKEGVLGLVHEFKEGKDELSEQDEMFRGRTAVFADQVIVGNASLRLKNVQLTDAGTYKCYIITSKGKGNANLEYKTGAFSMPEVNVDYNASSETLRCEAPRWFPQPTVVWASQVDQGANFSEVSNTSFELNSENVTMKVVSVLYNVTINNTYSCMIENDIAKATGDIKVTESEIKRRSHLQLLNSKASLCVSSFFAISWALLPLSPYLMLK
Assay: HTRF binding, human IgG1-TM
// units = nM; emit number, no label

Worked examples, 3 binders total:
Supply measured EC50 of ZY0EPQ-E02 human IgG1-TM (antibody, V domains shown) VH: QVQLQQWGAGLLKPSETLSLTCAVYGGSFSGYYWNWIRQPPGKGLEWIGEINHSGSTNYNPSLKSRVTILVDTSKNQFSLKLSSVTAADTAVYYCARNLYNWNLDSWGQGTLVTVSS VL: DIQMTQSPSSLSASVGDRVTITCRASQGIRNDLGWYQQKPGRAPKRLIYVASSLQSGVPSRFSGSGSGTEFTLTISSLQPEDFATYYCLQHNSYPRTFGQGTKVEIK in your reply.
0.41

Supply measured EC50 of ZY0EP0-C07 human IgG1-TM (antibody, V domains shown, also called ZY0EPO-C07) VH: QVQLVESGGVLVKPGGSLRLSCAASGFTLSDYYMSWIRQAPGMGLEWVSYISSSGSTIYYTDSVKGRFTISRDSAKNSLYLQMNSLRAEDTAVYYCARDGVGFDYWGQGTLVTVSS VL: EIVLTQSPGTLSLFPGERATLSCRASQSVSSSYLAWYQQKPGQSPRLLIYAASSRATGIPDRFSGSGSGTDFTLTISRLEPEDFAVYYCQQYGSSPLYTFGQGTKLEIK in your reply.
0.31

Supply measured EC50 of ZY0EQD-E02 human IgG1-TM (antibody, V domains shown) VH: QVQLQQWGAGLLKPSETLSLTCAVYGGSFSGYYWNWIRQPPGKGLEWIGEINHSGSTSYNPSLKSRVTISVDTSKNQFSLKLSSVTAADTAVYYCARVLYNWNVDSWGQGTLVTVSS VL: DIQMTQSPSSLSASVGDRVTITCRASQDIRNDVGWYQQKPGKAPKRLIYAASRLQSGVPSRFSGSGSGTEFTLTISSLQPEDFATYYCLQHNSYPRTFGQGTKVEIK in your reply.
0.33

--- query ---
Supply measured EC50 of ZY0EOB-F05 human IgG1-TM (antibody, V domains shown) VH: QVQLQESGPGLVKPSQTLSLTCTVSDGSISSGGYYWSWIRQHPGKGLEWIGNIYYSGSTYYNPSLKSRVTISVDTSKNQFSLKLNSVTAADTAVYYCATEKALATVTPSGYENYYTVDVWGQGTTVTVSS VL: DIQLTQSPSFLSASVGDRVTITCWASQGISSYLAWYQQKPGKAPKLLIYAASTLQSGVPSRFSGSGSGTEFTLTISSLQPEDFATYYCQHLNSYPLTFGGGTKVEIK in your reply.
0.15
